- TARGET_OR_TEST_SYSTEM: acyl-CoA synthetase-4 (Acsl4) (Rattus norvegicus, UniProt O35547)
- Sequence (O35547 whole entry): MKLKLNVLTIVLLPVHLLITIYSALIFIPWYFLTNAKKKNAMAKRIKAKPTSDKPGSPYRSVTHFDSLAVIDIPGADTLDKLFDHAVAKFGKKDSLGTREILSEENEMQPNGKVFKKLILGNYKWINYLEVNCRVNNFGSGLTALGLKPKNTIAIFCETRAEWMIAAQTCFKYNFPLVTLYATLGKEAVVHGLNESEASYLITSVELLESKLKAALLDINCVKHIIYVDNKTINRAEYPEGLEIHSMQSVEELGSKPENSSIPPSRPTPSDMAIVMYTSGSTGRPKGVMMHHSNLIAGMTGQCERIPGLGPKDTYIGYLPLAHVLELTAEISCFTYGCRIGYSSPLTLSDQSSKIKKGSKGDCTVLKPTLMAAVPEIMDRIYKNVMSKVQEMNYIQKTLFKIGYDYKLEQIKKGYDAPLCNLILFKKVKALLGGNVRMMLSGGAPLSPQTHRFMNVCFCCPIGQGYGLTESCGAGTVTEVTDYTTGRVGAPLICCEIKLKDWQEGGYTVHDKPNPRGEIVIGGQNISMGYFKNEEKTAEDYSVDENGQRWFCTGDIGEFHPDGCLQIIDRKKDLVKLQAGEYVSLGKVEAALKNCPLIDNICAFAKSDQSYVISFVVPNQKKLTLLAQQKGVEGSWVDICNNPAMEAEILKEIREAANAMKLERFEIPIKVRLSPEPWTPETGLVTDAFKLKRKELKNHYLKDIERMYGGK
MEASURED_METRIC: Ki
Put down the number, then write its unit next to it.

Item under review: CCC(C)C(CC)C(N)=O (racemic) [VCD, 2-ethyl-3-methyl pentanamide] . Reported Ki? 6.38 mM

# credit: paper PMC4554599
